Listing of entries alongside the reported growth.
test system: CCRF-CEM leukemia; assay: NCI-60 one-dose screen, 48 h (100 = growth as untreated, 0 = no growth, -100 = all killed); details: 10 µM unless noted
Compounds without any hit were thinned out: in the full panel of roughly 83,000, 20% have a hit.
Report the figure in % without appending any unit label.

Reference set (2 entries):
O=[N+]([O-])c1ccc(O)c2ncccc12 : 17.7
CC(C)(O)c1cncc(-c2ccc3ncnc(N4CCc5cc(F)c(Cl)cc54)c3c2)c1 : 22.2

Please turn your attention to the following entry.
[ask] Fill in growth for record CN(C)c1ccc(/C=c2\sc3nc4ccccc4n3c2=O)cc1
[reply] 13.8

###

Tested on: HT29 colon
Experiment: NCI-60 one-dose screen, 48 h (100 = growth as untreated, 0 = no growth, -100 = all killed)
Settings: 10 µM unless noted
Experimental: Growth inhibition of the HT29 human tumor cell line is measured as a screen for anti-cancer activity. Cells are grown in 96 well plates and exposed to the test compound for 48 hours. Compounds are tested at a single concentration, which is 10^-5 M for most compounds. The reported endpoint is percent growth (GI% or GIPRCNT), where numbers from 0 - 100% represent growth inhibition, and numbers from -100% - 0 represent cell death. For example, a value of 40 represents 60% growth inhibition. […]
About 83,000 compounds went through this panel and 20% of them were active in at least one assay; those are over-represented in the sample as a whole.
Below, each of the molecules is paired with its reported growth value.
Return type: number; implicit unit %.

A selection of reference data follows.
Clc1ccc(Cc2nnc3sc(-c4cccnc4)nn23)cc1 : 102
CN(C)CCCNc1c2ccc(Cl)cc2nc2c1oc1ccccc12 : -22.2
C#Cc1nc(C2=C(C)C(O)/C(=N/O)C2)cs1 (centres undefined) : 113
Cc1nc(-c2cc3ccccc3oc2=O)ccc1C(=O)/C=C/c1ccc(Cl)c(Cl)c1 : 114
N[C@@H](Cc1cn(-c2c3ccccc3nc3ccccc23)nn1)C(=O)O : 107
CCCC(=O)NC(c1cccc(N(C)C)c1)c1cc(C)c2cccnc2c1O (centres undefined) : 91.6

[ask] Param request: growth | system HT29 colon | item Nc1c(C(=O)Nc2ccc(C(F)(F)F)cc2)sc2nc(-c3cnccn3)cc(-c3cccs3)c12
[reply] 95

[ask] // fetch growth for O=C(c1ccc(Cl)cc1)C1[C@H](c2ccc(Cl)cc2)[C@@H](c2ccccc2)NC12C(=O)Nc1ccc(Br)cc12 (some centres undefined) ; system: HT29 colon
[reply] 0.232

[ask] Write down measured growth (HT29 colon) for this molecule. O=C1/C(=C/C2=Cc3ccccc3OC2)SC(=S)N1c1ccc(F)cc1
[reply] 118

[ask] # lookup: HT29 colon growth, key = CCOc1ccc([C@H]2C(C(=O)c3ccc(Cl)cc3)C3(N[C@@H]2c2ccccc2)C(=O)Nc2ccc(Br)cc23)cc1 (some centres undefined)
[reply] -27.1

[ask] State, for HT29 colon, measured growth of the molecule listed here: CCOc1ccc2nc(NC(=O)c3ccc(C(F)(F)F)cc3)sc2c1
[reply] 97.9

[ask] Give growth for this entry on HT29 colon: c1ccc2c(NCCCN3CCOCC3)c3oc4ccccc4c3nc2c1
[reply] -48.2

[ask] Using HT29 colon as the test system, report measured growth of CC1=C(C)C(=O)C(Nc2cccc(C(F)(F)F)c2)=C(Cl)C1=O .
[reply] 103

[ask] Provide HT29 colon growth reading for CCN1C(=S)N(CC)C2C1N=C(SC)N2/N=C/C=C/c1ccccc1[N+](=O)[O-] (centres undefined) .
[reply] 93.5

[ask] Given COc1cc2nc(-c3ccc(Cl)cc3)cc(OCCCNCC3CCCO3)c2cc1OC (centres undefined) , report its growth on HT29 colon.
[reply] 16.1

[ask] Jot down growth (HT29 colon) of Cn1cc(-c2cc(N)n3nc(-c4cn(C)c5ccc(Br)cc45)cc3n2)c2cc(Br)ccc21 .
[reply] 4.96

[ask] Specify the recorded growth for CC1=C(C)C(=O)C(Nc2ccccc2)=C(Cl)C1=O , system: HT29 colon.
[reply] 99.1

[ask] Retrieve growth on HT29 colon; query Cc1ccccc1NC(=O)/C=C/c1ccc(OCCOc2ccc3c(C)cc(=O)oc3c2)cc1
[reply] 96.7

[ask] State, for HT29 colon, measured growth of the molecule listed here: N#Cc1c(-c2ccc(Cl)cc2)nc(SCc2ccc(F)cc2)nc1N1CCNCC1
[reply] -51.8
